molecular target: Tyrosine-protein kinase BTK (Homo sapiens, UniProt Q06187); assay: Inhibition of BTK (unknown origin) measured by ADP-Glo assay
Sequence (Q06187 whole entry): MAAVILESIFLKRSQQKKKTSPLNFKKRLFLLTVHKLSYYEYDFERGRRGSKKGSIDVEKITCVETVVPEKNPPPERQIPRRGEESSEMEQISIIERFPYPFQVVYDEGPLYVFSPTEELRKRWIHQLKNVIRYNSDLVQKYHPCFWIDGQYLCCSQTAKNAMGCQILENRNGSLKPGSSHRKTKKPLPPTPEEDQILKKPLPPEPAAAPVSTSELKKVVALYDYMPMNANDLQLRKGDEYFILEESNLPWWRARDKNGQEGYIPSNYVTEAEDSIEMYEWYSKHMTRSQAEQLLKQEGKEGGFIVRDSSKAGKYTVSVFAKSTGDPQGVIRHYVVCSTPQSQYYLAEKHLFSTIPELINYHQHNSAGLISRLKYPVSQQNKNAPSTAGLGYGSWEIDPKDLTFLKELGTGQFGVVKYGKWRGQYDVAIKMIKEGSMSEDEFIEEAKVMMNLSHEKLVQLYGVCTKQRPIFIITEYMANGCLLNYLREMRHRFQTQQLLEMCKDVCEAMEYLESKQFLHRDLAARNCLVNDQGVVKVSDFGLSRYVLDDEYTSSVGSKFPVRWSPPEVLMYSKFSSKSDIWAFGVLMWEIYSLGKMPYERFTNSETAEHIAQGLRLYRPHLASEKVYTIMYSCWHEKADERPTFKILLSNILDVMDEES
Checkbox rule: IC50 lower than 0.8 nM = 1.0; IC50 not lower than 0.8 nM = 0.0.

>>> print(df.to_string())
                                   molecule  class_assignment
0  CC#CC(=O)NC1CCCN(c2ncnc3[nH]cc(C(=O)N4CC(Oc5ccccc5)C4)c23)C1 (configuration not stated)               0.0
1  C=CC(=O)N1CCC(CNc2ncnc3[nH]cc(C(=O)N4CC(Oc5ccccc5)C4)c23)CC1               1.0
2  CC#CC(=O)N1CC=C(c2c[nH]c3ncnc(-c4ccc(CNC(=O)c5ccc(C(C)(C)C)cc5)cc4)c23)CC1               0.0
3  C=CC(=O)N1CCC(O)(CNc2ncnc3[nH]cc(C(=O)N4CC(Oc5ccccc5)C4)c23)CC1               0.0
4  CC#CC(=O)N1CCC(Nc2ncnc3[nH]cc(C(=O)N4CC(Oc5ccccc5)C4)c23)CC1               0.0
5  C=CC(=O)N1CC=C(c2c[nH]c3ncnc(-c4ccc(CNC(=O)c5ccc(C(C)(C)C)cc5)cc4)c23)CC1               0.0

Every entry's value here was drawn from ChEMBL document CHEMBL5104164.
